Data provenance is patent US20250188176A1.

Target: canine IL-4RA (construct not given) (canine)
Experiment: SPR, combinatorial Fab-SASA clone
Param label: returns fulfilled when Kd < 0.6 nM, returns not fulfilled otherwise, including exact equality.

{"binder": "AHF21178 (Fab, V domains shown, not shown: small tags and cut ends) VH: EVQLVESGGDLVKPGGSLRLSCVASGFTFRDYAMTWVRQAPGKGLQWVSLINGSGGKTYYADAVKGRFTISRDNAKNTLYLQMNSLRAEDTAVYYCAVDRLTKTIRPQYYGLWVWGQGTLVTVSS VL: DIVMTQTPLSLSVSPGETASISCRSSQSLTYSIGYNYLDWYLQKPGQSPQGLIYLGSKRASGVPDRFSGSGSGTDFTLRISRVEANDTGVYYCMQGLQSPLSFGQGTKLEIKR", "category-label": "fulfilled"}
{"binder": "AHF21176 (Fab, V domains shown, not shown: small tags and cut ends) VH: EVQLVESGGDLVKPGGSLRLSCVASGFTFRDYAMTWVRQAPGKGLQWVSLINGSGGKTYYADAVKGRFTISRDNAKNTLYLQMNSLRAEDTAVYYCAVDRKTKTIRPQYYGLWHWGQGTLVTVSS VL: DIVMTQTPLSLSVSPGETASISCRSSQSLTYSIGYNYLDWYLQKPGQSPQGLIYLGHKRASGVPDRFSGSGSGTDFTLRISRVEANDTGVYYCMQGLQSPLGFGQGTKLEIKR", "category-label": "fulfilled"}
{"binder": "AHF21190 (Fab, V domains shown, not shown: small tags and cut ends) VH: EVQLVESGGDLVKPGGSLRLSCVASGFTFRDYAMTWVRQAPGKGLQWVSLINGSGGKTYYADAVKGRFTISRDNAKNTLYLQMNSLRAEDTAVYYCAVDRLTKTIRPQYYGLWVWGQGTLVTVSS VL: DIVMTQTPLSLSVSPGETASISCRSSQSLLYSIGYNYLDWYLQKPGQSPQGLIYLGHKRASGVPDRFSGSGSGTDFTLRISRVEANDTGVYYCMQGLQSPLSFGQGTKLEIKR", "category-label": "not fulfilled"}
{"binder": "AHF21184 (Fab, V domains shown, not shown: small tags and cut ends) VH: EVQLVESGGDLVKPGGSLRLSCVASGFTFRDYAMTWVRQAPGKGLQWVSLISGSGGKTYYADAVKGRFTISRDNAKNTLYLQMNSLRAEDTAVYYCAVDRLTKTIRPQYYGLWHWGQGTLVTVSS VL: DIVMTQTPLSLSVSPGETASISCRSSQSLLYSIGYNYLDWYLQKPGQSPQGLIYLGSKRASGVPDRFSGSGSGTDFTLRISRVEANDTGVYYCMQGLQSPLSFGQGTKLEIKR", "category-label": "not fulfilled"}
{"binder": "AHF21177 (Fab, V domains shown, not shown: small tags and cut ends) VH: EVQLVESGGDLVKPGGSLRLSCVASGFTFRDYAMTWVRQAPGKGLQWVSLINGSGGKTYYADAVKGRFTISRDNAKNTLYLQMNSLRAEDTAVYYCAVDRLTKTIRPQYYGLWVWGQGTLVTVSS VL: DIVMTQTPLSLSVSPGETASISCRSSQSLTYSIGYNYLDWYLQKPGQSPQGLIYLGSKRASGVPDRFSGSGSGTDFTLRISRVEANDTGVYYCMQGLQSPLGFGQGTKLEIKR", "category-label": "fulfilled"}
{"binder": "AHF21174 (Fab, V domains shown, not shown: small tags and cut ends) VH: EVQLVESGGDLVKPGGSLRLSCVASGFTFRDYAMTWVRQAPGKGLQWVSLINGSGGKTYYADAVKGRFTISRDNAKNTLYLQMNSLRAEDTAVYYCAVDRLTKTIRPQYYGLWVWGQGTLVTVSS VL: DIVMTQTPLSLSVSPGETASISCRSSQSLTYSIGYNYLDWYLQKPGQSPQGLIYLGHKRASGVPDRFSGSGSGTDFTLRISRVEANDTGVYYCMQGLQSPLSFGQGTKLEIKR", "category-label": "fulfilled"}
{"binder": "AHF21180 (Fab, V domains shown, not shown: small tags and cut ends) VH: EVQLVESGGDLVKPGGSLRLSCVASGFTFRDYAMTWVRQAPGKGLQWVSLINGSGGKTYYADAVKGRFTISRDNAKNTLYLQMNSLRAEDTAVYYCAVDRKTKTIRPQYYGLWHWGQGTLVTVSS VL: DIVMTQTPLSLSVSPGETASISCRSSQSLTYSIGYNYLDWYLQKPGQSPQGLIYLGSKRASGVPDRFSGSGSGTDFTLRISRVEANDTGVYYCMQPLQSPLTFGQGTKLEIKR", "category-label": "fulfilled"}
{"binder": "AHF21188 (Fab, V domains shown, not shown: small tags and cut ends) VH: EVQLVESGGDLVKPGGSLRLSCVASGFTFRDYAMTWVRQAPGKGLQWVSLISGSGGKTYYADAVKGRFTISRDNAKNTLYLQMNSLRAEDTAVYYCAVDRLTKTIRPQYYGLWHWGQGTLVTVSS VL: DIVMTQTPLSLSVSPGETASISCRSSQSLTYSIGYNYLDWYLQKPGQSPQGLIYLGSKRASGVPDRFSGSGSGTDFTLRISRVEANDTGVYYCMQGLQSPLGFGQGTKLEIKR", "category-label": "not fulfilled"}
{"binder": "AHF21182 (Fab, V domains shown, not shown: small tags and cut ends) VH: EVQLVESGGDLVKPGGSLRLSCVASGFTFRDYAMTWVRQAPGKGLQWVSLINGSGGKTYYADAVKGRFTISRDNAKNTLYLQMNSLRAEDTAVYYCAVDRLTKTIRPQYYGLWHWGQGTLVTVSS VL: DIVMTQTPLSLSVSPGETASISCRSSQSLTYSIGYNYLDWYLQKPGQSPQGLIYLGHKRASGVPDRFSGSGSGTDFTLRISRVEANDTGVYYCMQGLQSPLLFGQGTKLEIKR", "category-label": "fulfilled"}
